Assay: Inhibition of human tryptase-beta after 5 mins by fluorimetric analysis
Some compounds, each annotated with its measured pIC50.
Note: pIC50 values are expressed as the negative base-10 logarithm of concentration in M.

Completed entries (count: 5):
- item smiles: "Nc1ccc(CCC(=O)Oc2ccc3c(c2)C(=O)N(c2ccc(F)cc2)C3=O)cc1"
  pIC50: 5.77
- item smiles: "N#Cc1ccc(N2C(=O)c3ccc(OC(=O)CCc4ccc(N)cc4)cc3C2=O)cc1"
  pIC50: 6.47
- item smiles: "COc1ccccc1N1C(=O)c2ccc(OC(=O)CCc3ccc(N)cc3)cc2C1=O"
  pIC50: 5.96
- item smiles: "CN1C(=O)c2ccc(OC(=O)CCc3ccc(N)cc3)cc2C1=O"
  pIC50: 5.82
- item smiles: "Nc1ccc(CCC(=O)Oc2ccc3c(c2)C(=O)N(c2ccc(N)cc2)C3=O)cc1"
  pIC50: 6.09

Quick check: pIC50 of CC(C)N1C(=O)c2ccc(OC(=O)CCc3ccc(N)cc3)cc2C1=O ?
5.92

Item CCCCCCN1C(=O)c2ccc(OC(=O)CCc3ccc(N)cc3)cc2C1=O has what recorded pIC50?
5.82

# pIC50 lookup, item CN1C(=O)c2ccc(OC(=O)c3ccccc3N)cc2C1=O
5.82

Name the recorded pIC50 for Nc1ccc(CCC(=O)Oc2ccc3c(c2)C(=O)N(c2ccccc2)C3=O)cc1 .
5.89

Ref: ChEMBL document CHEMBL1177664
